- Target system: Luciferin 4-monooxygenase (Photuris pensylvanica) (UniProt Q27757)
- Assay overview: Counterscreen for Luciferase (Kinase-Glo TM) Inhibition; also: % is scaled to controls: 0 for no effect and ±100 for the full control effect; nearly all actives have a fitted effect of over 60% in size
- Assay context: ATP luminescence, 8 min; series mostly up to 38.3 µM
Screen size: about 200,000 compounds; about 560 (0.28%) were called active. The sample as a whole holds a higher share of actives than the screen did.
Property: activity change, negative = inhibition; scope: individual molecules
Assay metric: activity change, negative = inhibition

{"columns": ["Molecule", "Target system", "Assay metric", "Experimental result"],
 "data": [
  ["COC(=O)CC1c2ccccc2C(Cc2ccc(OC)cc2)=C(C)N1C(=O)OC (stereo not drawn)", "Luciferin 4-monooxygenase (Photuris pensylvanica) (UniProt Q27757)", "activity change, negative = inhibition", "-5.96% [at 7.66 µM] (inactive)"],
  ["COCCN1C=C2C(=O)C(C)(OC(=O)C3CCCC3)C(=O)C=C2C=C1c1ccsc1 (stereo not drawn)", "Luciferin 4-monooxygenase (Photuris pensylvanica) (UniProt Q27757)", "activity change, negative = inhibition", "-8.74% [at 7.66 µM] (inactive)"]
]}
